From: BindingDB's records for patent US9670214

Molecular target: Non-specific protein-tyrosine kinase (Homo sapiens, UniProt A9UEZ6)
Sequence (A9UEZ6 whole entry): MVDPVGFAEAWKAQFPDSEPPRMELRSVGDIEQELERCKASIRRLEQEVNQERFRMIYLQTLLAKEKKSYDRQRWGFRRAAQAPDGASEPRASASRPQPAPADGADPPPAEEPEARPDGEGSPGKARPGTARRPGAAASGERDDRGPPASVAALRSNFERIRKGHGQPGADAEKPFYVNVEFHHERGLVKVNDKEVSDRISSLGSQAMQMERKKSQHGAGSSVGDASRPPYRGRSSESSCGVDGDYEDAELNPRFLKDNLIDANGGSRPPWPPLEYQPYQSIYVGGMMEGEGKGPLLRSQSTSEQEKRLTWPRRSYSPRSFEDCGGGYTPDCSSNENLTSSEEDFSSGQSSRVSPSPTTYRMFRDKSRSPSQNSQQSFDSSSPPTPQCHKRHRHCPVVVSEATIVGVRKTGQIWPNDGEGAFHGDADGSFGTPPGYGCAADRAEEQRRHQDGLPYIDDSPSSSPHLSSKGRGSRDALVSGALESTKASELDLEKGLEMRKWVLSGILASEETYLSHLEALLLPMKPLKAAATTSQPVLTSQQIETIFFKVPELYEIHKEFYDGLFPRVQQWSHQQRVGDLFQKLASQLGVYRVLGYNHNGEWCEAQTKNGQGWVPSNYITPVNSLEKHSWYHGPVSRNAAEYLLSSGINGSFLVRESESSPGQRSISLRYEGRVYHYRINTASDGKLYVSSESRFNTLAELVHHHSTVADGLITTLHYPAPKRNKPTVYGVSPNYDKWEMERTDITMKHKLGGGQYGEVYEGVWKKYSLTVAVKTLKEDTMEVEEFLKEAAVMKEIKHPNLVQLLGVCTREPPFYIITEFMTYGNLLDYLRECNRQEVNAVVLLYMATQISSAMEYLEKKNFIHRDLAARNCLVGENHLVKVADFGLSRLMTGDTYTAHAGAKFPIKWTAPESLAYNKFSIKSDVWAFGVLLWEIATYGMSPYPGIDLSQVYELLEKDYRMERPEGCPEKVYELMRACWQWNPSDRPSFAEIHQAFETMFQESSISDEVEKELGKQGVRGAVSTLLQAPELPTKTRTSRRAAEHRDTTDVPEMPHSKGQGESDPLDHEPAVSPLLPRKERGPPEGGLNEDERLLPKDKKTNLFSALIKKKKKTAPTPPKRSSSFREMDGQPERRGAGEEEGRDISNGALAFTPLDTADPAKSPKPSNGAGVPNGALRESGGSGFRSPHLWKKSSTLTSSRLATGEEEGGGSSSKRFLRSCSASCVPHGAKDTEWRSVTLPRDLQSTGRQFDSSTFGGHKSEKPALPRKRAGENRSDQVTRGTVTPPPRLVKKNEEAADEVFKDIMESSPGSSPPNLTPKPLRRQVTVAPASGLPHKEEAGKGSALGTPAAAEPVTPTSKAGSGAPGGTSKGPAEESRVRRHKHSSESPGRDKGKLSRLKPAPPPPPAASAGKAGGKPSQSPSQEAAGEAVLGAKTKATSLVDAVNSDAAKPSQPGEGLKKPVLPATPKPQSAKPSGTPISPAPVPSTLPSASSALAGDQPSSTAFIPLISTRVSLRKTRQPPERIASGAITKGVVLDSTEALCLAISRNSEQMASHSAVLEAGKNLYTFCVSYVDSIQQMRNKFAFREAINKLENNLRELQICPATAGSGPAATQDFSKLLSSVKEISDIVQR
property measured: IC50 (µM)

> print(dat)
                              line.notation                     target.or.test.system  property.measured  observed.result
1  FC(F)(F)Oc1ccc(Nc2ncnc3c2cnn3Cc2cccnc2)cc1  Non-specific protein-tyrosine kinase (Homo sapiens, UniProt A9UEZ6)               IC50             0.03
